# testedOn: T1, porcine acylamino-acid-releasing enzyme (AARE or APEH) (porcine, UniProt P19205 1-732, limits assumed)
# T1 construct: also called porcine APEH; porcine AARE
# T1 sequence (looked up): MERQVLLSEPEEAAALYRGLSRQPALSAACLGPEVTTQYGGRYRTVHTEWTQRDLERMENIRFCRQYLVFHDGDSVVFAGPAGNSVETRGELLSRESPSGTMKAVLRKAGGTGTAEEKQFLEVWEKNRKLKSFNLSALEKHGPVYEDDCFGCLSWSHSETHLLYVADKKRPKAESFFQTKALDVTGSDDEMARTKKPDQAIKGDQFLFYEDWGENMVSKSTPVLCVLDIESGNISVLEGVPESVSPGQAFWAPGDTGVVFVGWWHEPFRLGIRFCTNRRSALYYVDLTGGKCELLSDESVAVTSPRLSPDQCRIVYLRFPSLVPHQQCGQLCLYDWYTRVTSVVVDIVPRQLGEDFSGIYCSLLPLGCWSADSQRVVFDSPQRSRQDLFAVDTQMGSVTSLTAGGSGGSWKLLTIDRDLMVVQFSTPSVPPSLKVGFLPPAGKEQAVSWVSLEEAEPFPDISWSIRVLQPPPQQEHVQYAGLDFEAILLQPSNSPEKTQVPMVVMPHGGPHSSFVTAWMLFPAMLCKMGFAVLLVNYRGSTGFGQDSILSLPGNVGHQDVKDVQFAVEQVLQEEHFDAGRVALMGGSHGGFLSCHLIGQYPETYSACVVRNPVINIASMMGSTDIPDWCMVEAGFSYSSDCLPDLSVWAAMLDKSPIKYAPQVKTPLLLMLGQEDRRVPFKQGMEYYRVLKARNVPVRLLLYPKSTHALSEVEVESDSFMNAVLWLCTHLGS
# assayMethodText: enzyme inhibition kinetics with N-acetyl-Ala-pNA as substrate
Where no end group is shown, it is not given here.
measure: pKi
Conceptually, pKi converts a concentration in mol/L into minus its log10.

Inquiry: Which pKi is reported for this binder? YAIDTILAEIKNINAD-NH2 (also called Peptide 3) [Compound 3 or SsCEI 3]
Reply text: 4.70
